These entries and their values trace back to PubChem BioAssay (NCI).

Listing of recorded TGI by entry.
Test system: SF-295 CNS
Assay: NCI tumour cell line growth inhibition, 48 h
Express it in µM; write the number only.

Solved entries:
{"columns": ["compound", "unit.symbol", "TGI"],
 "data": [
  ["Cc1cc2cc3cc(C)c(N(C)C)cc3nc2cc1N(C)C", "µM", 8.52],
  ["Cc1cccc2c1Oc1cc(Cl)ccc1C2NC(=O)CCN1CCN(CCO)CC1 (stereo not given)", "µM", 33],
  ["CC(C)CCOc1ccc(-c2n[nH]c(C(F)(F)F)c2-c2cncc(C#N)c2)c(O)c1", "µM", 6.7]
]}

Could you now look at the following compound, please?
Fill in: TGI of "O=[N+]([O-])c1ccc(-c2nc(-c3ccccc3)c(-c3ccccc3)n2-c2ccccc2)cc1" is ___
8.25
